- Test system: SW-620
- test-name: NCI tumour cell line growth inhibition, 48 h
The source made the active and inactive calls. Rule as the data show it: active = GI50 up to about 1.1 µM and inactive = higher.
Consider the following compounds; for each one, report its GI50.

Query block: Value lookup for GI50; key = N#Cc1c(-c2ccccc2)cn(C(=O)c2ccccc2)c1N
Result block: > 100 µM (inactive)

Query block: Value lookup for GI50; key = CCCC/N=C(/c1ccccc1)N1CCOCC1
Result block: > 100 µM (inactive)

Query block: Value lookup for GI50; key = S=C(c1c[nH]c2ccccc12)N1CCN(c2ccccc2)CC1
Result block: > 100 µM (inactive)

Query block: Value lookup for GI50; key = CCCCCCCCCCCCCCCC(=O)NC1CCc2cc(O)c(O)c(O)c2-c2ccc(SC)c(=O)cc21 (stereo unspecified)
Result block: 4.84 µM (inactive)

Query block: Value lookup for GI50; key = C/C(=C\CCC1=CC(=O)OC1)CC[C@@H]1[C@H]2C(=O)CC(C)[C@@]3(C)CC[C@]1(C)[C@@]23C (stereo partly specified)
Result block: > 10 µM (inactive)

Query block: Value lookup for GI50; key = NCCc1ccc2oc3cc(=O)c4ccccc4c-3nc2c1
Result block: 2.19 µM (inactive)

Query block: Value lookup for GI50; key = COC1(c2ccccc2)N=C(S)NN=C1c1ccccc1 (stereo unspecified)
Result block: 38.6 µM (inactive)

Query block: Value lookup for GI50; key = O=C(CC1(O)C(=O)Nc2c(Cl)ccc(Cl)c21)c1ccc(F)cc1 (stereo unspecified)
Result block: 34.1 µM (inactive)

Query block: Value lookup for GI50; key = CC(=O)c1ccc2c(c1)CC1(C2)Cc2ccc3c(c2C1=O)CCC3 (stereo unspecified)
Result block: 41 µM (inactive)

Query block: Value lookup for GI50; key = O=C1CCCc2c1c1c(n2Cc2ccccc2)-c2ccccc2C1=O
Result block: 32.3 µM (inactive)

Query block: Value lookup for GI50; key = C=C1C(=O)O[C@H]2C1C[C@@H](O)[C@@]1(C)OC1CC[C@@]1(C)O[C@H]21 (stereo partly specified)
Result block: 13.3 µM (inactive)

Query block: Value lookup for GI50; key = COP(=O)(OC)[C@@](O)(c1ccccc1)[C@@H](O)[C@H](O)c1ccccc1
Result block: 42.2 µM (inactive)

Query block: Value lookup for GI50; key = COc1ccccc1NC(=O)/C(=C/c1ccccc1)C(C)=O
Result block: 36.9 µM (inactive)

Query block: Value lookup for GI50; key = C=C1C(OC(=O)/C=C/c2ccccc2)CC(OC(C)=O)C2(C)C1CC1CC(OC(C)=O)C(C)=C(C(OC(C)=O)C2OC(C)=O)C1(C)C (stereo unspecified)
Result block: > 100 µM (inactive)

Query block: Value lookup for GI50; key = COc1c(OC(C)=O)c(OC(C)=O)cc2c1-c1ccc(OC)c(=O)cc1C(NC(C)=O)CC2 (stereo unspecified)
Result block: < 0.0125 µM (active)

Query block: Value lookup for GI50; key = Cc1ccc2c(c1)-c1nc(N)c(C#N)c(-c3ccc(Cl)cc3)c1CCS2(=O)=O
Result block: 46 µM (inactive)

Query block: Value lookup for GI50; key = COC(=O)[C@@H]1[C@@H]2NC(=S)N[C@@]1(C)Oc1ccccc12
Result block: 55.7 µM (inactive)

Query block: Value lookup for GI50; key = CC(=O)O[C@@H]1C2C(=O)OC(=O)C2C2CCC[C@]23O[C@H]13 (stereo partly specified)
Result block: > 100 µM (inactive)

Query block: Value lookup for GI50; key = CC(C)OP(=O)(OC(C)C)C(C)(C)O
Result block: > 100 µM (inactive)

Query block: Value lookup for GI50; key = Cc1ccc(Cl)c2[nH]c(-c3ccccc3)cc(=O)c12
Result block: 39.2 µM (inactive)

Query block: Value lookup for GI50; key = COc1cc(C2c3cc4c(cc3[C@@H](NCCN(C)C)C3COC(=O)[C@H]23)OCO4)cc(OC)c1O (stereo partly specified)
Result block: 0.153 µM (active)

Query block: Value lookup for GI50; key = CC(C)(C)[Si](C)(C)OCc1cccc(OCCOc2cccc(CO[Si](C)(C)C(C)(C)C)c2[N+](=O)[O-])c1[N+](=O)[O-]
Result block: > 100 µM (inactive)

Query block: Value lookup for GI50; key = [N-]=[N+]=NC1C(O)C(CO)OC1n1ccc(N)nc1=O (stereo unspecified)
Result block: 159 µM (inactive)

Query block: Value lookup for GI50; key = CCC12C=CCN(CCc3c([nH]c4ccccc34)/C=C\1)C2 (stereo unspecified)
Result block: > 100 µM (inactive)

Query block: Value lookup for GI50; key = CC(C)(C)C1=C(Br)C(O)(C(C)(C)C)OP1(=O)c1ccccc1 (stereo unspecified)
Result block: > 100 µM (inactive)

Query block: Value lookup for GI50; key = COc1ccc(C(=O)C(CC2C(=O)NC(=O)NC2=O)c2ccc(OC)cc2)cc1 (stereo unspecified)
Result block: > 100 µM (inactive)

Query block: Value lookup for GI50; key = Cc1c2ccnc(C(N)=O)c2c(C)c2c1[nH]c1ccccc12
Result block: 3.19 µM (inactive)

Query block: Value lookup for GI50; key = COc1cc(S(=O)(=O)Nc2nc(-c3ccc(N4C(=O)/C(=C\c5cccs5)N=C4c4ccccc4)cc3)cs2)ccc1Cl
Result block: > 100 µM (inactive)

Query block: Value lookup for GI50; key = CC(C)N(C(=O)C12C3C4C1(I)C1C2C3(I)C41C(=O)N(C(C)C)C(C)C)C(C)C (stereo unspecified)
Result block: > 39.2 µM (inactive)

Query block: Value lookup for GI50; key = Cc1ccc([N+](=O)[O-])cc1NC(=O)C(=O)C(C(=O)c1ccccc1F)C1OC(=O)c2ccccc21 (stereo unspecified)
Result block: 35.1 µM (inactive)

Query block: Value lookup for GI50; key = O=CC(O)C(O)C(O)C1CNC(=S)O1 (stereo unspecified)
Result block: > 100 µM (inactive)

Query block: Value lookup for GI50; key = CC(C)O/C=C1\C(=O)C2(SCCS2)[C@H]2CCCC[C@@H]12
Result block: 42.7 µM (inactive)

Query block: Value lookup for GI50; key = Cc1ccc(-c2cc(-c3ccc(Cl)cc3)nc(/N=C3\C(=O)N(CN(C)C)c4ccccc43)n2)cc1
Result block: 12.9 µM (inactive)

Query block: Value lookup for GI50; key = O=c1[nH]nc(-c2ccccc2)n1/N=C/c1ccc([N+](=O)[O-])o1
Result block: 2.49 µM (inactive)

Query block: Value lookup for GI50; key = CCn1c(=O)c2c3ccc(O)cc3oc2c2ccc(O)cc21
Result block: 41 µM (inactive)

Query block: Value lookup for GI50; key = C=CCN1C(=O)/C(=C/c2cccs2)N=C1SC/C=C/C
Result block: 35.6 µM (inactive)

Query block: Value lookup for GI50; key = N#Cc1ccc(Sc2nc3ccccc3[nH]2)cc1
Result block: > 100 µM (inactive)

Query block: Value lookup for GI50; key = N#Cc1ccccc1NC(=O)c1ccccc1
Result block: > 100 µM (inactive)

Query block: Value lookup for GI50; key = CCOC(=O)c1sc(N/N=C2\NC(=O)/C(=C/c3ccc([N+](=O)[O-])cc3)S2)nc1C
Result block: 31.8 µM (inactive)

Query block: Value lookup for GI50; key = CC(=O)Nc1ccc2cc3[nH]c4cc(NC(C)=O)ccc4c3nc2c1
Result block: > 100 µM (inactive)

Query block: Value lookup for GI50; key = C=C(Cl)C(Cl)(CBr)CCCC(C)(C)Cl (stereo unspecified)
Result block: 20.4 µM (inactive)

* * *

Consider the following compounds; for each one, report its GI50.
- Test system: SK-MEL-5
- test-name: NCI tumour cell line growth inhibition, 48 h
The source made the active and inactive calls. No stated cut-off is given here; in the data, active = GI50 up to about 1.1 µM and inactive = higher.

Query block: Return GI50 measured with SK-MEL-5 given this compound: N=C(CC(=O)Nc1ccccn1)c1ccccc1
Result block: > 100 µM (inactive)

Query block: Return GI50 measured with SK-MEL-5 given this compound: O=C(/C=C/c1ccc2c(c1)OCO2)c1ccccc(=O)c1O
Result block: 7.66 µM (inactive)

Query block: Return GI50 measured with SK-MEL-5 given this compound: O=c1c2ccccc2nc(-c2ccccc2Cl)n1NC1OC(CO)C(O)C(O)C1O (stereo unspecified)
Result block: > 100 µM (inactive)

Query block: Return GI50 measured with SK-MEL-5 given this compound: C=C(C)CCC1CCCCC(CN(C)C)C1=O (stereo unspecified)
Result block: > 100 µM (inactive)

Query block: Return GI50 measured with SK-MEL-5 given this compound: COC(=O)Cn1cnc2c(Cl)nc(Nc3ccccc3)nc21
Result block: 39 µM (inactive)

Query block: Return GI50 measured with SK-MEL-5 given this compound: Cc1cc2occ(S(=O)(=O)NC(=O)Nc3ccc(Cl)cc3)c(=O)c2c(=O)o1
Result block: > 100 µM (inactive)

Query block: Return GI50 measured with SK-MEL-5 given this compound: CC1=CC(=C(c2ccc(N)c(C)c2)c2ccc(N)c(C)c2)C=CC1=N
Result block: 2.07 µM (inactive)

Query block: Return GI50 measured with SK-MEL-5 given this compound: COc1ccc(C2COc3cc(O)c(O)cc3C2)cc1 (stereo unspecified)
Result block: 24.4 µM (inactive)

Query block: Return GI50 measured with SK-MEL-5 given this compound: CC(NC(=O)c1ccccc1)(C(=O)O)C(=O)O
Result block: > 100 µM (inactive)

Query block: Return GI50 measured with SK-MEL-5 given this compound: O=C(O)c1cccc(CC(Br)C(=O)O)c1 (stereo unspecified)
Result block: > 100 µM (inactive)

Query block: Return GI50 measured with SK-MEL-5 given this compound: O=C(N/C(=C\c1ccc2c(c1)OCO2)c1nc2ccccc2[nH]1)c1ccccc1
Result block: 16 µM (inactive)
